Quick reference for pEC50 among some molecules
- Tested on: CD34+ cells isolated from the bone marrow of two healthy donors
- assay comment: Megakaryocyte differentiation and proliferation, alone and with ruxolitinib, 10 days (FACS)
- Assay type: cell-based
- experimental setup: 240 h, 10 days; Donor 1; percent of cells double positive for CD41a and CD42b; read-out: Megakaryocyte differentiation EC50
pEC50: −log10 of the molar value.
metric: pEC50

N#CC[C@H](C1CCCC1)n1cc(-c2ncnc3[nH]ccc23)cn1 [Ruxolitinib, phosphate, reference compound]: 6.29
Cc1noc2c1-c1ccccc1C(c1ccc(Cl)cc1)=N[C@H]2CC(N)=O: 7.22

Sourced from patent US12070464B2
